Every entry's value here was drawn from paper PMC10087775.

tested.system: (UniProt A0A7G8ITR3)
Sequence (A0A7G8ITR3 40-334 limits assumed): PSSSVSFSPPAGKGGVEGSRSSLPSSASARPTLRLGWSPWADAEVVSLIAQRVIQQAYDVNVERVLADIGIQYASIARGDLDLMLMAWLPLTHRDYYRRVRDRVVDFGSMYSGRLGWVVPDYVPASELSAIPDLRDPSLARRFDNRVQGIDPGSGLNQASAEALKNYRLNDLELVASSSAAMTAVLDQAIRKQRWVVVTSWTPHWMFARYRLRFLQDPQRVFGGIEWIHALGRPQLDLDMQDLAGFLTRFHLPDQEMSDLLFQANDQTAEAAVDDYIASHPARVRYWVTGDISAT
procedure.details: Modified DSF (isothermal analysis, FoldAffinity) binding affinity of MITS9220_ProX
Set-up: species or system Synechococcus sp. MITS9220
cond: 0.50 M NaCl (Buffer A), Tsel 62°C; read-out: Affinity (K D)
attribute.measured: Kd (µM)
Kindly answer with a numeric value in µM, unit omitted.

// field: Kd; key: `C[N+](C)(C)CC(=O)[O-]` ; value = 1.2

* * *

tested.system: UniProtKB A0A7G8ITR3
procedure.details: Modified DSF (isothermal analysis, FoldAffinity) binding affinity of MITS9220_ProX
Design: species or system Synechococcus sp. MITS9220
cond: 1.5 M NaCl; read-out: Affinity (K D)
attribute.measured: pKd
The quantity pKd is defined as the negative base-10 logarithm of the molar concentration.

// field: pKd; key: `C[N+](C)(C)CC(=O)[O-]` ; value = 6.28
